assay: In vitro anticoagulant activity determined by clotting test of activated partial thromboplastin time (APTT) on a pool of human plasma; format: functional
readout-type: APTT (IU mg-1)
State just the number; it will be interpreted in IU mg-1.

Reference set, count: 2
compound | readout-type | units-label | endpoint-result
COC1C(NC(C)=O)C(OC2C(C(=O)[O-])OC(OC3C(NC(C)=O)C(OC4C(C(=O)[O-])OC(C)C(OC(C)=O)C4O)OC(COC(C)=O)C3OS(=O)(=O)[O-])C(OC(C)=O)C2OC(C)=O)OC(COC(C)=O)C1OS(=O)(=O)[O-].[Na+].[Na+].[Na+].[Na+] (stereo not drawn) | APTT | IU mg-1 | 1.7
O=C(/C=C(\CO)OC1OC(COS(=O)(=O)[O-])C(OC2OC(C(=O)OCc3ccccc3)C(OC3OC(COS(=O)(=O)[O-])C(OC4OC(C(=O)OCc5ccccc5)C(OC5OC(COS(=O)(=O)[O-])C(O)C(O)C5NS(=O)(=O)[O-])C(O)C4OS(=O)(=O)[O-])C(O)C3NS(=O)(=O)[O-])C(O)C2OS(=O)(=O)[O-])C(O)C1NS(=O)(=O)[O-])OCc1ccccc1.[Na+].[Na+].[Na+].[Na+].[Na+].[Na+].[Na+].[Na+] (stereo not drawn) | APTT | IU mg-1 | 4

Now, please, on to the next compound.
Req: # get_value(readout='APTT', item= CCCCCC(=O)OCC1OC(OC2C(C(=O)[O-])OC(OC3C(NC(C)=O)C(OC4C(C(=O)[O-])OC(C)C(OC(=O)CCCCC)C4O)OC(COC(=O)CCCCC)C3OS(=O)(=O)[O-])C(OC(=O)CCCCC)C2OC(=O)CCCCC)C(NC(C)=O)C(OC)C1OS(=O)(=O)[O-].[Na+].[Na+].[Na+].[Na+] (stereo not drawn) )
Resp: 3.4
